procedureDetails: growth suppression of PTEN-deleted HCT116, pilot screen, cell-based, HCT116 clonal line, CellTiter-Glo (AID 824);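 further: 0% = 20 µM Hyamine control and 100% = vehicle cell control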
conditions: 60 h, at 10 µM, hits give low values
Inconclusive results are not listed.
Catalogue of compounds with associated viability
# output: bare number, implied unit %

# example entries with known answers
CSc1cccc(NS(=O)(=O)c2cccc3nsnc23)c1 ... 93.3
COc1ccc(N2CCN(c3nc4c(c(=O)[nH]c(=O)n4C)n3Cc3ccccc3Cl)CC2)cc1 ... 75.3
COC(=O)C1CCN(C(=O)c2ccccc2NC(C)=O)CC1 ... 99.6
COc1ccc(Cl)cc1N1C(=O)C2CCCN2C1c1ccccc1F (stereo unspecified) ... 95.1
O=C(Cn1cc2c(n1)CCCC2)N1CCCc2ccccc21 ... 100

Qu. Returns the measured viability for the input compound. Input: `O=C(O)c1cc2nc(C3CC3)cc(C(F)(F)F)n2n1`
Ans. 90.1
